Reference source: ChEMBL document CHEMBL1201862

Target: DNA dC->dU-editing enzyme APOBEC-3A (Homo sapiens, UniProt P31941)
Sequence (P31941 whole entry): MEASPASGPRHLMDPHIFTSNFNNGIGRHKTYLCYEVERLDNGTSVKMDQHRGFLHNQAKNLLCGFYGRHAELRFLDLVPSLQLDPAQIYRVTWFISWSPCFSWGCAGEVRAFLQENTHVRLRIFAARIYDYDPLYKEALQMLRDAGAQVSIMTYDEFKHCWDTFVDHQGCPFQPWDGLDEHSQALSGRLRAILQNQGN
Test: Dose Response confirmation of small molecule APOBEC3A DNA Deaminase Inhibitors via a fluorescence-based single-stranded DNA deaminase assay. [Related pubchem assays (depositor defined):AID493011, AID493024]
Format: functional
Active and inactive are the calls of the source. The rule behind the calls is not given here.
We begin with a simple list: items and their reported IC50.
property.measured: IC50

C[N+]12CCCCC1[C@@H](CO)CCC2 (some centres undefined) :: 2.79 µM (active)
CNC(=O)OCc1n(C)cc[n+]1C :: 1.76 µM (active)
C[N+](C)(C)CCCN(Cc1ccc2c(c1)OCO2)C(=O)NC1CCCCC1 :: 2.43 µM (active)
CCC(=O)Nc1cccc(-c2nnc(SCC(=O)NCc3ccco3)n2C)c1 :: 1.07 µM (active)
